# Protocol notes: Stability toward mouse liver microsomes
# Condition parameters: remaining after 40 min incubation with MLMs
We label by threshold. Values of MLM (%) remaining strictly beneath 10% are t. Values of 10% and up are f.

Please review the entries below; each comes with its answer.
| Molecule | Category |
| --- | --- |
| CC1=C(C(=O)Nc2ccccc2C)C(c2ccco2)C2=C(CCCC2=O)N1 (centres unmarked) [Compound 1, reference compound] | f |
| CC1=C(C(=O)Nc2cc(Cl)ccc2Cl)C(c2nccs2)C2=C(CCCC2=O)N1 (centres unmarked) | t |
| CCCC1C(C(=O)Nc2ccccc2C)=C(C)NC2=C1C(=O)CCC2 (centres unmarked) | f |
| CC1=C(C(=O)Nc2cc(Cl)ccc2Cl)C(c2ncco2)C2=C(CCCC2=O)N1 (centres unmarked) | f |

For the next question, use this molecule.
Request: Please let me know if CC1=C(C(=O)Nc2cc(Cl)ccc2Cl)C(C2CCCC2)C2=C(CCCC2=O)N1 (centres unmarked) shows MLM (%) remaining below 10%.
Result: f
